# experimental-conditions: Ebola virus entry assay, green fluorescence channel
Potency and affinity values are given separately.
measured-metric: efficacy (%)
One number for each entry, in %.

Known results for compounds:
| compound | value-reported |
| --- | --- |
| Cc1cc(=O)[nH]c(=S)[nH]1 | -11.2 |
| C[C@@H]1CC2=CC(=O)CC[C@@H]2[C@H]2CC[C@@]3(C)[C@@H](CC[C@]3(C)O)[C@@H]21 | 24.6 |
| CCN(Cc1ccncc1)C(=O)C(CO)c1ccccc1 (stereo not drawn) | -24.3 |

Go through the items and report each one's efficacy.
1. O=C(OCc1ccccc1)c1ccccc1
2. Cn1c(=O)c2[nH]cnc2n(C)c1=O
3. CO[C@@]1(NC(=O)CSCC#N)C(=O)N2C(C(=O)O)=C(CSc3nnnn3C)CS[C@@H]21
4. CCCCCCCC(=O)OCC(COC(=O)CCCCCCC)OC(=O)CCCCCCC
5. Cc1onc(-c2ccccc2)c1C(=O)Cl

[-23.2, -18.7, -13.7, 8.07, 6.34]

---

# Tested on: DFO2036
# test-summary: qHTS profiling for inhibitors of Plasmodium falciparum proliferation (AID 504749); note: nearly all actives have a fitted effect of over 60% in size
# experimental-conditions: P. falciparum in erythrocytes, SYBR Green DNA, 72 h; series mostly up to 28.7 µM
Records with an inconclusive call do not appear. Activity calls are given as the source filed them. Calls follow the shape of the dose curve; as a rule, active = well fitted inhibition curve with a large enough effect; inconclusive = small, poorly fitted or top-dose-only effect; inactive = flat fitted curve, though single readings scatter.
Please reply with one of these outcomes: active, inactive

Some solved cases for reference:
| molecule | class |
| --- | --- |
| O=C(Nc1ccc(Br)cc1)c1cc(Br)cc(Br)c1O | inactive |
| CN1C(=O)CC(=O)N(c2ccccc2)c2cc(Cl)ccc21 | inactive |
| Nc1nc(N)nc(NC2CC2)n1 | inactive |

Now take the following molecule into account.
Recorded test outcome, item COC1CC(=C(c2cccs2)c2cccs2)C[N+](C)(C)C1 (centres undefined)
active

---

# System: KB-3-1
# test-summary: Cytotoxic Profiling of Annotated Libraries Using Quantitative High-Throughput Screening (AID 1296008); note: % is set by controls: 0 for no effect and ±100 for the full control effect; nearly all actives have a fitted effect of over 60% in size
# experimental-conditions: Five cell lines viability, CellTiter-Glo ATP luminescence, 48-72 h; hits give low values
Records with an inconclusive call do not appear.
measured-metric: max response (%)
Give bare numbers, in %.

Known results for compounds:
| compound | value-units | max response |
| --- | --- | --- |
| COC1CC(=C(c2cccs2)c2cccs2)C[N+](C)(C)C1 (stereo not given) | % | 0.141 |
| COc1cc(CC(C)N)cc(OC)c1OC (stereo not given) | % | -7.25 |
| CN(C)CCc1c[nH]c2cccc(OP(=O)(O)O)c12 | % | -1.8 |
| COc1ccc2c(c1)C13CCCC[C@@H]1C(C2)N(C)CC3 (stereo not given in full) | % | 18.3 |

Let us move to another entry and its max response.
Let me know recorded max response for Clc1ccc(C(c2ccc(Cl)cc2)C(Cl)(Cl)Cl)cc1 , thanks.
-11.6

---

# experimental-conditions: Ebola virus entry assay, ratio channel
Calls of active or inactive are those of the source. No rule for the calls is given here.
Please reply with one of these outcomes: 1.0 for active, 0.0 for inactive

Recorded test outcome, item CCC1(c2ccccc2)C(=O)N(COC)C(=O)N(COC)C1=O
0.0

Recorded test outcome, item CCOC(=O)c1ccccc1O
0.0

Recorded test outcome, item CO[C@]12C[C@@H](COC(=O)c3cncc(Br)c3)CN(C)[C@@H]1Cc1cn(C)c3cccc2c13
1.0

Recorded test outcome, item C[C@@H](N)[C@@H](O)c1ccccc1
0.0

Recorded test outcome, item CCCCC(O)/C=C(C)/C=C/C=C/C(=O)N1CCCC1=O (stereo not drawn)
0.0

Recorded test outcome, item N=C(N=C(N)N)N1CCOCC1
0.0

Recorded test outcome, item CC(=O)OCC(=O)[C@@]1(O)[C@H](OC(C)=O)C[C@H]2[C@@H]3CCC4=CC(=O)C=C[C@]4(C)[C@@]3(F)[C@@H](O)C[C@@]21C
0.0

Recorded test outcome, item NS(=O)(=O)c1ccc(Cl)c(S(N)(=O)=O)c1
0.0

Recorded test outcome, item CC(C)NNC(=O)c1ccncc1
0.0

Recorded test outcome, item OC[C@H]1O[C@@H](Oc2ccc(O)cc2)[C@H](O)[C@@H](O)[C@@H]1O
0.0

Recorded test outcome, item Nc1ccc(S(=O)(=O)NC(=O)c2ccccc2)cc1
0.0

Recorded test outcome, item C[C@]12CCC(=O)C=C1CC[C@@H]1[C@H]3CC[C@](C)(O)[C@@]3(C)CC[C@@H]12
0.0

Recorded test outcome, item CCC(CC)(CNC(=O)CCCO)c1cccc(OC)c1
0.0

---

# Test system: P93_24
# test-summary: qHTS profiling for inhibitors of Plasmodium falciparum proliferation (AID 504749); note: nearly all actives have a fitted effect of over 60% in size
# experimental-conditions: P. falciparum in erythrocytes, SYBR Green DNA, 72 h; series mostly up to 28.7 µM
Results filed as inconclusive are left out. The source made the active and inactive calls. Calls come from the whole dose curve; as a rule, active = well fitted inhibition curve with a large enough effect; inconclusive = small, poorly fitted or top-dose-only effect; inactive = flat fitted curve, though single readings scatter.
Please reply with one of these outcomes: active, inactive

Some solved cases for reference:
| compound | measured-target | class |
| --- | --- | --- |
| NNc1ccccc1 | P93_24 | inactive |
| NCCc1ccc(O)cc1 | P93_24 | inactive |
| O=C(N/N=C/c1ccc([N+](=O)[O-])o1)c1cc([N+](=O)[O-])cc([N+](=O)[O-])c1O | P93_24 | active |
| CC(C)c1cccc(C(C)C)c1O | P93_24 | inactive |
| O=C1OC(c2ccc(O)c(S(=O)(=O)O)c2)(c2ccc(O)c(S(=O)(=O)O)c2)c2c(Br)c(Br)c(Br)c(Br)c21 | P93_24 | inactive |

Now take the following compound into account.
Recorded test outcome, item COC(=O)C(c1ccccc1)C1CCCCN1 (stereo unspecified)
inactive

---

# test-summary: Quantitative High-Throughput drug screen in 47 multiple myeloma cell lines against the NCATS MIPE library collection: JIM3_ECACC cell viability assay (AID 1918963;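 note: 100% = DMSO-only wells and 0% = media-only wells without cells; nearly all actives have a fitted effect of over 35% in size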)
# experimental-conditions: JIM3 myeloma viability, CellTiter-Glo ATP, 48 h; series mostly up to 45.8 µM
Records with an inconclusive call do not appear. Calls of active or inactive are those of the source. Calls come from the whole dose curve; as a rule, active = well fitted cell-killing curve with a large enough effect; inconclusive = small, poorly fitted or top-dose-only effect; inactive = no such curve, though single readings can be large or run the other way.
measured-metric: outcome

| molecule | value-reported |
| --- | --- |
| CC(C)c1cccc(C(C)C)c1O | inactive |
| CC(NC(C)(C)C)C(=O)c1cccc(Cl)c1 (stereo not drawn) | inactive |
| CN1C(=O)COc2c(C(=O)NC3CN4CCC3CC4)cc(Cl)cc21 (stereo not drawn) | inactive |

---

# Test system: P94_40
# test-summary: qHTS profiling for inhibitors of Plasmodium falciparum proliferation (AID 504749); note: nearly all actives have a fitted effect of over 60% in size
# experimental-conditions: P. falciparum in erythrocytes, SYBR Green DNA, 72 h; series mostly up to 28.7 µM
# Method: NIH National Institute of Allergy and Infectious Diseases [NIAID] NIH Chemical Genomics Center [NCGC] […] Because mature erythrocytes lack DNA, only Plasmodium-derived DNA is detected. NCGC Assay Protocol Summary: The SYBR Green viability assay was adapted from a method described previously (Plouffe et al., 2008). […] The following morning, fluorescence intensity at 485(14) nm excitation and 535(25) nm emission wavelengths was measured on an EnVision (Perkin Elmer) plate reader. […]
Results filed as inconclusive are left out. The source made the active and inactive calls. Calls come from the whole dose curve; as a rule, active = well fitted inhibition curve with a large enough effect; inconclusive = small, poorly fitted or top-dose-only effect; inactive = flat fitted curve, though single readings scatter.
Please reply with one of these outcomes: active, inactive

Some solved cases for reference:
| molecule | class |
| --- | --- |
| NNc1ccccc1 | inactive |
| CCOP(=S)(OCC)Oc1ccc2c(C)c(Cl)c(=O)oc2c1 | active |
| COP(=S)(OC)Oc1ccc(SC)c(C)c1 | inactive |

Recorded test outcome, item Oc1ccc(Cl)cc1
inactive

Recorded test outcome, item O=C1Nc2ccc(Cl)cc2C(c2ccccc2)=NC1O (centres undefined)
inactive

Recorded test outcome, item COP(=S)(OC)Oc1ccc(S(=O)(=O)N(C)C)cc1
inactive

Recorded test outcome, item Cc1ncsc1CCCl
inactive

Recorded test outcome, item CN1C(=O)C(O)N=C(c2ccccc2)c2cc(Cl)ccc21 (centres undefined)
inactive

Recorded test outcome, item CN1C(=O)NC(=O)C(C)(C2=CCCCC2)C1=O (centres undefined)
inactive

Recorded test outcome, item NCCc1ccc(O)cc1
inactive

Recorded test outcome, item O=C(O)CCCc1ccc(N(CCCl)CCCl)cc1
inactive

Recorded test outcome, item COC(=O)C(c1ccccc1)C1CCCCN1 (centres undefined)
inactive

Recorded test outcome, item O=C(Nc1ccc(Br)cc1)c1cc(Br)cc(Br)c1O
inactive

Recorded test outcome, item C[C@]12CC[C@@H]3c4ccc(OC(=O)N(CCCl)CCCl)cc4CC[C@H]3[C@@H]1CC[C@@H]2O
inactive

---

# experimental-conditions: Ebola virus entry assay, blue channel fluorescence
The source made the active and inactive calls. Calls follow the shape of the full dose curve.

| compound | outcome |
| --- | --- |
| O=C(O)CCCc1ccc(N(CCCl)CCCl)cc1 | inactive |
| CN1CCN2c3ncccc3Cc3ccccc3C2C1 (stereo not drawn) | inactive |
| CN1C(=O)CC(=O)N(c2ccccc2)c2cc(Cl)ccc21 | inactive |
